Target: SMARCA2 (Homo sapiens)
Construct: endogenous in cells
Sequence (P51531 whole entry, species assumed): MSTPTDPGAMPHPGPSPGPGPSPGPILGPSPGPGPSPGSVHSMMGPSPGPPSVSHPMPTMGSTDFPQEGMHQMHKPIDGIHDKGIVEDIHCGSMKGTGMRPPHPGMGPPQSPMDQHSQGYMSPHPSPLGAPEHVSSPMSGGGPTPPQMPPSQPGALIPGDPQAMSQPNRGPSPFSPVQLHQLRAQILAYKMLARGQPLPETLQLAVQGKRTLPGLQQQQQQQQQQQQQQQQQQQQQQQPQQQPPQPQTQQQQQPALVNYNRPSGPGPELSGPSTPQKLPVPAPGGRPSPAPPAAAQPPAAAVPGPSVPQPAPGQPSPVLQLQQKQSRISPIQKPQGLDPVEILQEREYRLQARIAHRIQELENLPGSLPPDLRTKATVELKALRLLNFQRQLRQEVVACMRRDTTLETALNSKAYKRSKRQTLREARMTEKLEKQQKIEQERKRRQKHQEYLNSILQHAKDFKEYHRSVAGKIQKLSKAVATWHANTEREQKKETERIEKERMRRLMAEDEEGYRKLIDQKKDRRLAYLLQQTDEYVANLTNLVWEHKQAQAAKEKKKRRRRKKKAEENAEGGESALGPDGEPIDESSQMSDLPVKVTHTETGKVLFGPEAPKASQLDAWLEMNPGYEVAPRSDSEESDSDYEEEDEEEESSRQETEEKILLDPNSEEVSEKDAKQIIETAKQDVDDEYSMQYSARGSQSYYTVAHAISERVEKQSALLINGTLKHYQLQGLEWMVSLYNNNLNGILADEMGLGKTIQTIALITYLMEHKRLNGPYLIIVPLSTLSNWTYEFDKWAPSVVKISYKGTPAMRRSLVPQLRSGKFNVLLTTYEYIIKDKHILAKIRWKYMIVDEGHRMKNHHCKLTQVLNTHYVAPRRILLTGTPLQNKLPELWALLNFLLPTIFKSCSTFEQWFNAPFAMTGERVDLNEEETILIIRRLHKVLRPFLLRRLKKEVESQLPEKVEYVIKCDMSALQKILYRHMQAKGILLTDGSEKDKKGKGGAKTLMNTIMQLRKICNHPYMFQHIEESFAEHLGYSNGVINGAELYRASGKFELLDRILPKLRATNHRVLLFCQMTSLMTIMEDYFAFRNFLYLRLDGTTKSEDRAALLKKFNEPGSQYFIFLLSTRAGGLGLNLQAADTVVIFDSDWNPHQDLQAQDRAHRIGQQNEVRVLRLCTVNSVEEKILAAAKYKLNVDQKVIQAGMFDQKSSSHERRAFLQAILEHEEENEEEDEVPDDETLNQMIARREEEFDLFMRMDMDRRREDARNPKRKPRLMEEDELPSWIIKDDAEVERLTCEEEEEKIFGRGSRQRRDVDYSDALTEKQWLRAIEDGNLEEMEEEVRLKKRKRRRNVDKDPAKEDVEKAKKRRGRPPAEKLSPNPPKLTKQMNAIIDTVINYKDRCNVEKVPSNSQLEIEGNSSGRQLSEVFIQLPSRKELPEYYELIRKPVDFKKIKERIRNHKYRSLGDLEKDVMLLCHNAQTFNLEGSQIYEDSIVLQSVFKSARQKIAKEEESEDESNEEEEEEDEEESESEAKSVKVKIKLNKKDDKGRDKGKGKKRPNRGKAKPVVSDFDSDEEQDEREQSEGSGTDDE
Assay: SMARCA2 Cellular Degradation Assay (Western blot analysis on Jess platform)
Type: cell-based
Conditions: cellular degradation
attribute.measured: Dmax (%)
The figure you give is taken to be in %; do not add the unit.

Prompt: Notebook entry, SMARCA2 (Homo sapiens) assay: Dmax of O=C1CC[C@H](c2ccc(N3CCC(CN4CCCC4C4CCCN(C(=O)C5(c6ccccc6)CCN(c6cnnc(-c7ccccc7O)c6)CC5)C4)CC3)cc2)C(=O)N1 (some centres unmarked) = ?
Response: 47.5

Prompt: Request body: readout Dmax, system SMARCA2 (Homo sapiens), query Cc1ccnn1C1(C(=O)N(C)C2CCN(CCC3CCN(c4ccc(C5CCC(=O)NC5=O)c(F)c4)CC3)CC2)CCN(c2cnnc(-c3ccccc3O)c2)CC1 (racemic) . Return the value.
Response: 89.2

Prompt: Fill in the recorded Dmax for this molecule, with SMARCA2 (Homo sapiens) as test system: Cc1ccnn1C1(C(=O)N(C)C2CCN(CC3CCN(c4ccc(C5CCC(=O)NC5=O)cc4)CC3)CC2)CCN(c2cnnc(-c3ccccc3O)c2)CC1 (racemic)
Response: 87.1

Prompt: Provide the documented Dmax with SMARCA2 (Homo sapiens) as the system for O=C1CCC(c2ccc(N3CCC4(CCN(CC5CCN(C(=O)C6(c7ccccc7)CCN(c7cnnc(-c8ccccc8O)c7)CC6)CC5)C4)CC3)cc2)C(=O)N1 (racemic)
Response: 62

Prompt: What reported Dmax corresponds to Cn1nccc1C1(C(=O)N2CC3(CN(CC4CCN(c5ccc(C6CCC(=O)NC6=O)cc5)CC4)C3)C2)CCN(c2cnnc(-c3ccccc3O)c2)CC1 (racemic) on SMARCA2 (Homo sapiens)?
Response: 69.8

----------
Target: SMARCA4 (Homo sapiens, UniProt P51532)
Construct: endogenous in cells
Sequence (P51532 whole entry, species assumed): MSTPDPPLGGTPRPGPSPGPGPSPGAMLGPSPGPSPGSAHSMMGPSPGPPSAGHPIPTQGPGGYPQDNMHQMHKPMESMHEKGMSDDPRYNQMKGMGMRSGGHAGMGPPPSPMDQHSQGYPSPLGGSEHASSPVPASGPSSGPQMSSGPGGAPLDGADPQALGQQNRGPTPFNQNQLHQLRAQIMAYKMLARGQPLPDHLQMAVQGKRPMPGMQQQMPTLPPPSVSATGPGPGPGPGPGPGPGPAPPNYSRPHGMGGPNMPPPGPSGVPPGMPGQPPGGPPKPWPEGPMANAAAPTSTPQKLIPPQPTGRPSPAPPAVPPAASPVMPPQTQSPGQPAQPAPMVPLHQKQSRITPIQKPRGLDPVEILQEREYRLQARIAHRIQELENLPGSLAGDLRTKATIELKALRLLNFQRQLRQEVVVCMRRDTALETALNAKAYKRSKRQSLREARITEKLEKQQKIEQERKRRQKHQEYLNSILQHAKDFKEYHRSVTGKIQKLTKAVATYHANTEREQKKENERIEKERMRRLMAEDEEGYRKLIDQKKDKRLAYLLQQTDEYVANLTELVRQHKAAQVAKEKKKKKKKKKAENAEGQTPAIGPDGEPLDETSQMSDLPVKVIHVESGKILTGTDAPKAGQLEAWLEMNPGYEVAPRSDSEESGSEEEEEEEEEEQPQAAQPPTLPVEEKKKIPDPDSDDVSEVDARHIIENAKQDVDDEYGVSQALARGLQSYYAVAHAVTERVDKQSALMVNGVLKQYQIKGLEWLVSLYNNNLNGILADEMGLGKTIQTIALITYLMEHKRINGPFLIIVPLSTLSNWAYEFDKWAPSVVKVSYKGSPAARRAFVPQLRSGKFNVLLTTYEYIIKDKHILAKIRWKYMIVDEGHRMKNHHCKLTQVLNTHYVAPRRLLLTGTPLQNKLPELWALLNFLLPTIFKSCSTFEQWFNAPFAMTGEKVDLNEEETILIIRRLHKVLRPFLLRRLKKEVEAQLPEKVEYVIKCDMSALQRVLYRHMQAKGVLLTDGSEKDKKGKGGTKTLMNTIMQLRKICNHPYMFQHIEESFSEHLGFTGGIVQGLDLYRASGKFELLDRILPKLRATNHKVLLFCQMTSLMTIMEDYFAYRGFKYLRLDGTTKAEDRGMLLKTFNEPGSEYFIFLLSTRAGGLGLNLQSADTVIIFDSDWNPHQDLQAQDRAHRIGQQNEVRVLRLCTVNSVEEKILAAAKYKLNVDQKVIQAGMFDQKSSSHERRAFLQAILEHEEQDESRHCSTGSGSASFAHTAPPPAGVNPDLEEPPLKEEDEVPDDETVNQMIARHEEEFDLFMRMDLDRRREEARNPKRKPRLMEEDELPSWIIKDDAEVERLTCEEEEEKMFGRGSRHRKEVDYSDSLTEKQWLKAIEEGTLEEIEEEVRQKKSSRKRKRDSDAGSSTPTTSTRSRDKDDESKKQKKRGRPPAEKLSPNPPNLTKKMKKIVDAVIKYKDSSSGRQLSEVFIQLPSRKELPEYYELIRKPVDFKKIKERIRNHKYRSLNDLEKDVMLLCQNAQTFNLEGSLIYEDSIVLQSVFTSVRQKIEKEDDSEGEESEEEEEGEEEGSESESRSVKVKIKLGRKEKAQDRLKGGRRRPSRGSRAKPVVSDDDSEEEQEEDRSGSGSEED
Assay: Cellular degradation assay, SMARCA4 (Table 1)
Assay type: cell-based
// values below are reported DC50

// worked examples, DC50 included
Prompt: Form field - read-out: DC50; system: SMARCA4 (Homo sapiens, UniProt P51532); submitted item: COc1cccc(C2(C(=O)NC3CCN(CC4CCN(c5ccc([C@H]6CCC(=O)NC6=O)cc5)CC4)C4(CCC4)C3)CCN(c3cnnc(-c4ccccc4O)c3)CC2)c1 (stereo partly drawn) [Example 169]
Response: 104 nM

Prompt: Lab note: need DC50 for Cc1ccnn1C1(C(=O)N(C)C2CCN(CCC3CCN(c4ccc(C5CCC(=O)NC5=O)c(F)c4)CC3)CC2)CCN(c2cnnc(-c3ccccc3O)c2)CC1 (racemic) [Example 65] on SMARCA4 (Homo sapiens, UniProt P51532), anyone have it?
Response: 88.6 nM

New cases:
Prompt: Provide value of DC50 for this record tested with SMARCA4 (Homo sapiens, UniProt P51532): O=C1CC[C@H](c2ccc(N3CCC(CN4CC[C@@H](NC(=O)C5(c6ccccc6)CCN(c6cnnc(-c7ccccc7O)c6)CC5)CC45CCC5)CC3)cc2)C(=O)N1 [Example 190]
Response: 81.9 nM

----------
Target: SMARCA4 (Homo sapiens)
Construct: endogenous in cells
Test: Cellular degradation assay, SMARCA4 (Table 1)
Assay type: cell-based
Each entry below carries its recorded Dmax.
Remember to quote the unit after the number.

// known answers, use as guide
Prompt: Look at this molecule and give its reported Dmax. O=C1CC[C@H](c2ccc(N3CCC(CNC4CCN(C(=O)C5(Oc6ccccc6)CCN(c6cnnc(-c7ccccc7O)c6)CC5)CC4)CC3)cc2)C(=O)N1
Response: 46.2%

Prompt: Please give the measured Dmax for this molecule: O=C1CCC(c2ccc(N3CCC(CCN4CC5(C4)CN(C(=O)C4(c6cc7ccccn7n6)CCN(c6cnnc(-c7ccccc7O)c6)CC4)C5)CC3)cc2)C(=O)N1 (racemic)
Response: 21.9%

Continue with the molecule presented below.
Prompt: // Dmax lookup, key: CCN(C(=O)C1(c2ccccc2)CCN(c2cnnc(-c3ccccc3O)c2)CC1)C1CCN(CCC2CCN(c3ccc([C@H]4CCC(=O)NC4=O)cc3)CC2)CC1
Response: 73.1%

Taken from patent US20250051344A1.
